tested on: FLU A (PR/8/34); test: Flu A Neuraminidase Antiviral Assay; assay type: cell-based
MEASURED_PARAMETER: EC50

[[record]]
compound = "CN1C(=O)c2c(O)c(=O)ccn2C2C1CCCC2(O)c1ccccc1 (single isomer, unassigned) [Compound 165B]"
tested_on = "FLU A (PR/8/34)"
recorded_value = "> 8.1 µM"

[[record]]
compound = "CCN1C(=O)c2c(O)c(=O)ccn2N2C(c3ccccc3)C(C3(C(F)(F)F)CC3)CCC12 (single isomer, unassigned) [Compound 104B]"
tested_on = "FLU A (PR/8/34)"
recorded_value = "> 0.81 µM"

[[record]]
compound = "CN1C(=O)c2c(O)c(=O)ccn2N2C(c3cccc(OC(F)F)c3)CCCC12 (single isomer, unassigned) [Compound 12B]"
tested_on = "FLU A (PR/8/34)"
recorded_value = "> 8.1 µM"

[[record]]
compound = "CN1C(=O)c2c(O)c(=O)ccn2N2C(c3ccccc3F)CCCC12 (single isomer, unassigned) [Compound 8A]"
tested_on = "FLU A (PR/8/34)"
recorded_value = "> 8.1 µM"


[in] Find EC50 for Cc1ccc(C2(C)CCCC3N(CC(F)(F)F)C(=O)c4c(O)c(=O)ccn4N32)nc1 (single isomer, unassigned) [Compound 49A] on FLU A (PR/8/34) and write it down.
[out] > 8.1 µM

====

system: FLU A (PR/8/34); assay: Flu A Neuraminidase Antiviral Assay; type: cell-based
MEASURED_PARAMETER: EC50

Recorded EC50, per entry:
[[record]]
compound = "CN1C(=O)c2c(O)c(=O)ccn2N2C1CCC1(CCC(F)(F)C1)C2c1ccccc1 (single isomer, unassigned) [Compound 68B]"
recorded_value = "> 810 nM"

[[record]]
compound = "CCN1C(=O)c2c(O)c(=O)cc(COC)n2N2C(c3ccccc3)C(CC(F)(F)F)CCC12 (stereo not drawn) [Compound 131D]"
recorded_value = "> 810 nM"


We next turn to a different compound, shown below.
[in] Find EC50 for CN1C(=O)c2c(O)c(=O)ccn2N2C(c3ccccc3)C(c3ccc(F)c(F)c3F)CCC12 (single isomer, unassigned) [Compound 85C] on FLU A (PR/8/34) and write it down.
[out] > 810 nM

Values were extracted from patent US20240018145A1.
